- SYSTEM: Metabotropic glutamate receptor 2 (Homo sapiens, UniProt Q14416)
- ASSAY_SUMMARY: Agonist activity at human mGluR2 expressed in CHO cells at by [S35]GTPgammaS binding assay relative to glutamate
- Type: functional, cell-based
- Sequence (Q14416 19-872 limits assumed): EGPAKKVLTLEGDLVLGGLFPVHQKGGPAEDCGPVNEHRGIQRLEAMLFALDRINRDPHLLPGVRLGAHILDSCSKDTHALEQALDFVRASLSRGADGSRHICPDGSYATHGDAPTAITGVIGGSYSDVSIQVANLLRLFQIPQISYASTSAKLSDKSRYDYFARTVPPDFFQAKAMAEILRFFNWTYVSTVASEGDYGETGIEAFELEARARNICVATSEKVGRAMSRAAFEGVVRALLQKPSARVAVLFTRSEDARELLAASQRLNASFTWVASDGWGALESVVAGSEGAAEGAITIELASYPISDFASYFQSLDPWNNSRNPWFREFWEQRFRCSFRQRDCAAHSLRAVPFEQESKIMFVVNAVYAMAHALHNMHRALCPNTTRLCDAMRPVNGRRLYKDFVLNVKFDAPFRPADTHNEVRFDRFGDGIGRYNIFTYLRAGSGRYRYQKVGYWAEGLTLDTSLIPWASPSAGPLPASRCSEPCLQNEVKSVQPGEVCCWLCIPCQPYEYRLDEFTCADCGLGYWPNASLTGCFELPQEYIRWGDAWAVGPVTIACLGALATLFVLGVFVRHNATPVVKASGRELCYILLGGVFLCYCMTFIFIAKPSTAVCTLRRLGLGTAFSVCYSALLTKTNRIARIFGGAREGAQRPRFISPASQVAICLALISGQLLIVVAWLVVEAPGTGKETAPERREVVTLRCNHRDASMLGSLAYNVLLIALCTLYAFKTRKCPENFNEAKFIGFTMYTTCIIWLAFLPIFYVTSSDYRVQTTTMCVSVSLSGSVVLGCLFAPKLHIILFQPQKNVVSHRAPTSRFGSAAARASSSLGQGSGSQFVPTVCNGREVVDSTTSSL
MEASURED_PROPERTY: Emax (%)

Worked cases, answers included:
structure_string=CCCn1ccc2cc(-c3ccc(N4CCOCC4)nc3)cc(Cl)c2c1=O reported_result=84
structure_string=CCCn1ccc2cc(-c3ccc(OCc4ccc(Cl)nc4)cc3)cc(Cl)c2c1=O reported_result=81
structure_string=CCCn1ccc2cc(-c3cccnc3)ccc2c1=O reported_result=81
structure_string=CCCn1ccc2cc(N3CCNCC3)cc(Cl)c2c1=O reported_result=47
structure_string=CCCn1ccc2cc(-c3ccc(OCc4cccnc4)nc3)cc(Cl)c2c1=O reported_result=120
structure_string=CCCn1ccc2cc(-c3ccc(OCCc4ccccc4)nc3)cc(Cl)c2c1=O reported_result=103
structure_string=CCCn1ccc2cc(-c3ccc(Oc4ccncc4)cc3)cc(Cl)c2c1=O reported_result=90
structure_string=CCCn1ccc2cc(-c3cccnc3)cc(Cl)c2c1=O reported_result=83
structure_string=CCCn1ccc2cc(OCCCc3cccnc3)cc(Cl)c2c1=O reported_result=75
structure_string=CCCn1ccc2cc(N3CCOCC3)ccc2c1=O reported_result=66

(P) CCCn1ccc2cc(-c3ccncc3)cc(Cl)c2c1=O
(Q) CCCn1ccc2cc(-c3cncnc3)cc(Cl)c2c1=O
Inquiry: Min Emax? P | Q Mark your selection by writing its label.
Reply text: Q
(Q: 28%, P: 73%)

(I) CCCn1ccc2cc(-c3ccc(Oc4ccccc4)cc3)cc(Cl)c2c1=O
(II) CCCn1ccc2cc(OCc3cccnc3)cc(Cl)c2c1=O
(III) CCCn1ccc2cc(OCCc3cccnc3)cc(Cl)c2c1=O
Inquiry: Let's sort these by Emax, smallest first. Go ahead? Write out the labels following the order that was asked for.
Reply text: III, I, II

(I) CCCn1ccc2cc(-c3cn[nH]c3)cc(Cl)c2c1=O
(II) CCCn1ccc2cc(-c3ccc(OC)nc3)cc(Cl)c2c1=O
Inquiry: Return label of the item with the larger Emax. Candidates: I , II . Label of pick, please.
Reply text: II
(II: 121%, I: 65%)

====

- SYSTEM: Metabotropic glutamate receptor 2 (Homo sapiens)
- ASSAY_SUMMARY: Agonist activity at human mGluR2 expressed in CHO cells at by [S35]GTPgammaS binding assay
- Type: functional, cell-based
- Sequence (Q14416 whole entry): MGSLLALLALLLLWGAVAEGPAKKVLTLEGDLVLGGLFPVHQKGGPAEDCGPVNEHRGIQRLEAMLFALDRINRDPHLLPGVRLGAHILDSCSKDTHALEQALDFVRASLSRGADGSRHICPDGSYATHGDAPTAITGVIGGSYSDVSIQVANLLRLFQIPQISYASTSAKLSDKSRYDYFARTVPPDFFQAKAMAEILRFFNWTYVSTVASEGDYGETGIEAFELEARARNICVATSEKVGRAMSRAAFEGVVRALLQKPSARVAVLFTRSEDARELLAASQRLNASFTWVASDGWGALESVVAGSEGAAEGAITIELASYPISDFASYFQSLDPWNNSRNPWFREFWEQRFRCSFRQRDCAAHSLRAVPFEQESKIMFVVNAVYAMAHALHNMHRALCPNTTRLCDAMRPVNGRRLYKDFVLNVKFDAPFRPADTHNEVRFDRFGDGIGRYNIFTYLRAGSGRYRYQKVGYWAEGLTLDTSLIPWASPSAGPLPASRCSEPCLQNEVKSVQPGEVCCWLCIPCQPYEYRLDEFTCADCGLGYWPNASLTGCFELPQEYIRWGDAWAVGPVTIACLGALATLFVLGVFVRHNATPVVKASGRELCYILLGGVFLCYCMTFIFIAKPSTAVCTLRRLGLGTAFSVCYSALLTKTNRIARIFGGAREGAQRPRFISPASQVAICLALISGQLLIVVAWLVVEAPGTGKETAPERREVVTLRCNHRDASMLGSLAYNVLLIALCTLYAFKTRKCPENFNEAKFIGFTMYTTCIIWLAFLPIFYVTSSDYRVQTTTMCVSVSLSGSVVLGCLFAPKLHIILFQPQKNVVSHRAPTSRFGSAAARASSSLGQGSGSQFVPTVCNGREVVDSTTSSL
MEASURED_PROPERTY: EC50 (µM)

(a) CCCn1ccc2cc(OCc3cccnc3)cc(Cl)c2c1=O
(b) CCCn1ccc2cc(-c3cnc(OC)c(F)c3)cc(Cl)c2c1=O
(c) CCCn1ccc2cc(-c3cncnc3)cc(Cl)c2c1=O
Inquiry: Sort by EC50, descending. To answer, write out the labels according to the requested order.
Reply text: c, a, b

====

- SYSTEM: Metabotropic glutamate receptor 2 (Homo sapiens)
- ASSAY_SUMMARY: Agonist activity at human mGluR2 expressed in HEK293 cells assessed as induction of calcium release by FLIPR assay
- Type: functional, cell-based
MEASURED_PROPERTY: pEC50
As a rule, pEC50 stands for the negative log10 of the concentration, concentration in M.

Inquiry: What measured pEC50 is associated with `CCCn1ccc2cc(N3CCOCC3)cc(Cl)c2c1=O` on Metabotropic glutamate receptor 2 (Homo sapiens)?
Reply text: 5.60

====

- SYSTEM: Metabotropic glutamate receptor 2 (Homo sapiens, UniProt Q14416)
- ASSAY_SUMMARY: Agonist activity at human mGluR2 expressed in CHO cells at by [S35]GTPgammaS binding assay
- Assay type: functional, cell-based
MEASURED_PROPERTY: EC50 (nM)

structure_string=CCCn1ccc2cc(-c3ccc(OCc4cccnc4)nc3)cc(Cl)c2c1=O readout_units=nM reported_result=316

(a) CCCn1ccc2cc(NCc3cccnc3)cc(Cl)c2c1=O
(b) CCCn1ccc2cc(-c3ccc(OCCc4ccccc4)nc3)cc(Cl)c2c1=O
(c) CCCn1ccc2cc(-c3ccc(OCc4ccc(Cl)nc4)cc3)cc(Cl)c2c1=O
(d) CCCn1ccc2cc(N3CCOCC3)cc(Cl)c2c1=O
Inquiry: Highest EC50 first, then in falling order down to the smallest. // format: requested-order list of labels
Reply text: d, a, b, c
(d: 5010 nM, a: 3160 nM, b: 631 nM, c: 398 nM)

(1) CCCn1ccc2cc(-c3ccc(Oc4ccccc4)nc3)cc(Cl)c2c1=O
(2) CCCn1ccc2cc(-c3ccc(N(C)C)nc3)cc(Cl)c2c1=O
Inquiry: Identify the item whose EC50 is the smaller number: 1 or 2 Return value: the label identifying the chosen record.
Reply text: 1

(a) CCCn1ccc2cc(N3CCC(O)CC3)cc(Cl)c2c1=O
(b) CCCn1ccc2cc(OCCCc3cccnc3)cc(Cl)c2c1=O
Inquiry: Parameter metric = EC50. Return the lower-valued option from a and b . Your choice should be expressed through its label.
Reply text: b
(b: 631 nM, a: 5010 nM)

(P) CCCn1ccc2cc(-c3ccc(OC)cc3)cc(Cl)c2c1=O
(Q) CCCn1ccc2cc(-c3ccc(Oc4ccncc4)cc3)cc(Cl)c2c1=O
(R) CCCn1ccc2cc(-c3cn[nH]c3)cc(Cl)c2c1=O
(S) CCCn1ccc2cc(-c3ccc(OC)nc3)cc(Cl)c2c1=O
(T) CCCn1ccc2cc(-c3cccnc3)ccc2c1=O
Inquiry: Arrange the 5 entries by EC50 so the values rise. Please list each label once, in the requested order.
Reply text: Q, P, S, R, T

====

- SYSTEM: Metabotropic glutamate receptor 2 (Homo sapiens)
- ASSAY_SUMMARY: Agonist activity at human mGluR2 expressed in CHO cells at by [S35]GTPgammaS binding assay relative to glutamate
- Type: functional, cell-based
MEASURED_PROPERTY: Emax (%)

structure_string=CCCn1ccc2cc(-c3cnc(OC)c(F)c3)cc(Cl)c2c1=O measured_property=Emax reported_result=75
structure_string=CCCn1ccc2cc(-c3ccc(Oc4ccccc4)nc3)cc(Cl)c2c1=O measured_property=Emax reported_result=92
structure_string=CCCn1ccc2cc(-c3ccc(OC)cc3)cc(Cl)c2c1=O measured_property=Emax reported_result=136

(a) CCCn1ccc2cc(-c3ccc(N(C)C)nc3)cc(Cl)c2c1=O
(b) CCCn1ccc2cc(-c3ccc(OCc4ccc(C(F)(F)F)nc4)cc3)cc(Cl)c2c1=O
Inquiry: Just tell me: smaller Emax value, a or b ? # answer = label of selected item
Reply text: a
(a: 85%, b: 170%)

(P) CCCn1ccc2cc(-c3ccc(OCc4cccnc4)cc3)cc(Cl)c2c1=O
(Q) CCCn1ccc2cc(N3CCOCC3)cc(Cl)c2c1=O
Inquiry: Min Emax? P | Q To answer, give the label that identifies your chosen option.
Reply text: P

====

- SYSTEM: Metabotropic glutamate receptor 2 (Homo sapiens, UniProt Q14416)
- ASSAY_SUMMARY: Agonist activity at human mGluR2 expressed in CHO cells at by [S35]GTPgammaS binding assay
- Format: functional, cell-based
MEASURED_PROPERTY: EC50 (nM)

Check out these entries, answers already filled in.
structure_string=CCCn1ccc2cc(-c3ccc(N4CCOCC4)nc3)cc(Cl)c2c1=O readout_units=nM reported_result=794
structure_string=CCCn1ccc2cc(OCCc3cccnc3)cc(Cl)c2c1=O readout_units=nM reported_result=794
structure_string=CCCn1ccc2cc(-c3ccncc3)cc(Cl)c2c1=O readout_units=nM reported_result=1260
structure_string=CCCn1ccc2cc(-c3ccc(Oc4ccccc4)cc3)cc(Cl)c2c1=O readout_units=nM reported_result=2000
structure_string=CCCn1ccc2cc(-c3cccnc3)cc(Cl)c2c1=O readout_units=nM reported_result=631

(P) CCCn1ccc2cc(-c3ccc(OCc4ccc(C(F)(F)F)nc4)cc3)cc(Cl)c2c1=O
(Q) CCCn1ccc2cc(-c3ccc(OCc4cccnc4)cc3)cc(Cl)c2c1=O
Inquiry: Endpoint returns the identifier whose EC50 is numerically larger, either P or Q . State your choice using its label.
Reply text: Q

====

Listed next: entries and their corresponding EC50.
- SYSTEM: Metabotropic glutamate receptor 2 (Homo sapiens, UniProt Q14416)
- ASSAY_SUMMARY: Agonist activity at human mGluR2 expressed in CHO cells at by [S35]GTPgammaS binding assay
- Format: functional, cell-based

structure_string=CCCn1ccc2cc(N3CCNCC3)cc(Cl)c2c1=O system="Metabotropic glutamate receptor 2 (Homo sapiens, UniProt Q14416)" reported_result="> 10 µM"
structure_string=CCCn1ccc2cc(N3CCOCC3)ccc2c1=O system="Metabotropic glutamate receptor 2 (Homo sapiens, UniProt Q14416)" reported_result="> 10 µM"

Next up:
Inquiry: State the recorded EC50 for this entry: `CCCn1ccc2cc(-c3cccnc3)cc(C#N)c2c1=O`
Reply text: > 50.1 µM

The reported measurements were obtained from ChEMBL document CHEMBL1667810.
